Test Method Notes: BSK_CASM3C_Proliferation: Cell Proliferation Assessment in the BioMAP Diversity Plus: CASM3C Assay (AID 2283047);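 further: sulforhodamine B total protein stain as relative cell number at 560 nm; sub-confluent cells exposed 48 h before staining; fitted both ways against DMSO so gain or loss of cell number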
Measurement Context: primary human coronary artery smooth muscle cells
Active and inactive are the calls of the source. How the source made its calls: active means hit-call score of the fitted dose curve at least 0.9, where 1 is the maximum; inactive means score below 0.9.
Pick from y = active, n = inactive when you respond.

{"columns": ["Chemical Structure", "Assigned Label"],
 "data": [
  ["Cc1ccccc1CO[C@@H]1C[C@@]2(C(C)C)CC[C@]1(C)O2", "n"],
  ["CCCCCCCCCc1ccc(O)cc1", "y"],
  ["CCSC(=O)N(CC)C1CCCCC1", "n"],
  ["Cc1cc(-c2ccc(N)c(C)c2)ccc1N", "n"],
  ["O=C(O)C(F)(F)C(F)(F)C(F)(F)C(F)(F)C(F)(F)C(F)(F)C(F)(F)C(F)(F)C(F)(F)F", "n"],
  ["Oc1ccc(Cl)cc1Cl", "n"],
  ["C[C@]12CCC(=O)C=C1CC[C@@H]1[C@@H]2CC[C@@]2(C)[C@H]1CC[C@]2(C)O", "n"],
  ["CCC(C)(c1ccc(O)cc1)c1ccc(O)cc1", "y"]
]}

Please share the test call associated with C=CC(N)=O .
n

Please share the test call associated with O=C(O)C(F)(F)C(F)(F)C(F)(F)C(F)(F)C(F)(F)C(F)(F)C(F)(F)C(F)(F)F .
n

Please share the test call associated with CCC(=O)O[C@H]1CC[C@H]2[C@@H]3CCC4=CC(=O)CC[C@]4(C)[C@H]3CC[C@]12C .
y

====

Read-out: Intercellular Adhesion Molecule 1 (ICAM1), ICAM1 (gene 3383)
Test Method Notes: LTEA_HepaRG_ICAM1: Life Technologies and Expression Analysis (LTEA) Assay for Intercellular Adhesion Molecule 1 (ICAM1) using HepaRG (AID 2283507)
Measurement Context: mRNA level, 48 h; actives raise or lower the signal
Calls of active or inactive are those of the source. Rule for the calls: active = hit-call score of the fitted dose curve at least 0.9, where 1 is the maximum; inactive = score below 0.9.
Pick from active, inactive when you respond.

Examples with answers:
{"columns": ["Compound", "Assigned Label"],
 "data": [
  ["CCCCCCCCOC(=O)c1ccccc1C(=O)OCCCCCCCC", "inactive"],
  ["CCC(C)(c1ccc(O)cc1)c1ccc(O)cc1", "inactive"],
  ["Oc1c(Cl)c(Cl)c(Cl)c(Cl)c1Cl", "inactive"],
  ["CCOCCOC(C)=O", "inactive"]
]}

Please share the test call associated with COc1ccc(O)c(C(C)(C)C)c1 .
inactive

Please share the test call associated with Cc1ccc(O)c(C)c1 .
inactive

Please share the test call associated with CC1=C2C[C@H]3[C@@H](CC=C4C[C@@H](O)CC[C@@]43C)[C@@H]2CC[C@]12O[C@@H]1C[C@H](C)CN[C@H]1[C@H]2C .
inactive

Please share the test call associated with Oc1ccc(C(c2ccc(O)cc2)(C(F)(F)F)C(F)(F)F)cc1 .
inactive

Please share the test call associated with Clc1ccc(Cl)cc1 .
inactive

Please share the test call associated with O=NN(c1ccccc1)c1ccccc1 .
inactive

Please share the test call associated with O=C(O)C(F)(F)C(F)(F)C(F)(F)C(F)(F)C(F)(F)C(F)(F)C(F)(F)C(F)(F)F .
active

Please share the test call associated with NS(=O)(=O)C(F)(F)C(F)(F)C(F)(F)C(F)(F)C(F)(F)C(F)(F)C(F)(F)C(F)(F)F .
inactive

Please share the test call associated with CCC(C)c1cc([N+](=O)[O-])cc([N+](=O)[O-])c1O (stereo unspecified) .
inactive

Please share the test call associated with CCOC(=O)C(O)(c1ccc(Cl)cc1)c1ccc(Cl)cc1 .
inactive

Please share the test call associated with CN(C)c1nc(=O)n(C2CCCCC2)c(=O)n1C .
active

Please share the test call associated with Cc1cc(-c2ccc(N)c(C)c2)ccc1N .
inactive

Please share the test call associated with Clc1ccc(C(c2ccccc2Cl)C(Cl)(Cl)Cl)cc1 (stereo unspecified) .
inactive

====

Test Method Notes: CCTE_Shafer_MEA_dev_inter_network_spike_interval_mean: CCTE's Neural Network Formation Assay for Mean Inter-network Spike Interval, Shafer Lab (AID 2284047)
The source made the active and inactive calls. The calls were made as follows: active = hit-call score of the fitted dose curve at least 0.9, where 1 is the maximum; inactive = score below 0.9.
Measurement Type: outcome

These solved cases illustrate the format of a correct answer.
{"columns": ["Compound", "Assay Result"],
 "data": [
  ["Clc1ccc(C(c2ccccc2Cl)C(Cl)(Cl)Cl)cc1 (centres undefined)", "inactive"],
  ["O=C(O)C(F)(F)C(F)(F)C(F)(F)C(F)(F)C(F)(F)C(F)(F)C(F)(F)C(F)(F)F", "inactive"],
  ["ClC1=C(Cl)[C@]2(Cl)[C@@H]3[C@@H](Cl)[C@H]4O[C@H]4[C@@H]3C1(Cl)C2(Cl)Cl", "inactive"],
  ["NS(=O)(=O)C(F)(F)C(F)(F)C(F)(F)C(F)(F)C(F)(F)C(F)(F)C(F)(F)C(F)(F)F", "inactive"]
]}

Any idea what outcome was measured for ClC(Cl)=C(c1ccc(Cl)cc1)c1ccc(Cl)cc1 ?
inactive

Any idea what outcome was measured for Oc1ccc(C(c2ccc(O)cc2)(C(F)(F)F)C(F)(F)F)cc1 ?
inactive

Any idea what outcome was measured for CCOP(=S)(OCC)SCSC(C)(C)C ?
inactive

Any idea what outcome was measured for O=S(=O)(O)C(F)(F)C(F)(F)C(F)(F)C(F)(F)C(F)(F)C(F)(F)F ?
inactive

Any idea what outcome was measured for O=C(O)C(F)(F)C(F)(F)C(F)(F)C(F)(F)C(F)(F)F ?
inactive

====

Test Method Notes: APR_HepG2_P-H2AX_72hr: Apredica 72-hour HepG2 Assay for H2AX Phosphorylation (AID 2282916);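 further: phospho-histone H2A.x immunostain intensity per cell marking DNA damage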
Measurement Context: imaging, actives raise or lower the signal
Active and inactive are the calls of the source. The calls were made as follows: active = hit-call score of the fitted dose curve at least 0.9, where 1 is the maximum; inactive = score below 0.9.
Pick from active, inactive when you respond.

{"columns": ["Compound", "Assigned Label"],
 "data": [
  ["CC(c1ccc(O)cc1)(c1ccc(O)cc1)c1ccc(O)cc1", "active"],
  ["O=C(NC(=O)c1c(F)cccc1F)Nc1cc(Cl)c(OC(F)(F)C(F)F)c(Cl)c1", "inactive"]
]}

Please share the test call associated with Clc1ccc(Cl)cc1 .
inactive

Please share the test call associated with CCC(C)(c1ccc(O)cc1)c1ccc(O)cc1 .
inactive

Please share the test call associated with c1cc2ccc3cccc4ccc(c1)c2c34 .
active

Please share the test call associated with CCOCCOC(C)=O .
inactive

Please share the test call associated with C1CC2OC2CC1C1CO1 (centres undefined) .
inactive

Please share the test call associated with Cc1ccccc1[N+](=O)[O-] .
inactive

Please share the test call associated with C[C@]12CCC(=O)C=C1CC[C@@H]1[C@@H]2CC[C@]2(C)C(=O)CC[C@@H]12 .
inactive

Please share the test call associated with CCOC(=O)C(O)(c1ccc(Cl)cc1)c1ccc(Cl)cc1 .
active

Please share the test call associated with CCOP(=S)(OCC)SCSC(C)(C)C .
inactive

Please share the test call associated with CCCCCCCCOC(=O)c1ccccc1C(=O)OCCCCCCCC .
inactive

Please share the test call associated with c1ccc(-c2ccccc2)cc1 .
inactive

Please share the test call associated with O=S(=O)(O)C(F)(F)C(F)(F)C(F)(F)C(F)(F)C(F)(F)C(F)(F)F .
inactive

Please share the test call associated with Cc1cc(-c2ccc(N)c(C)c2)ccc1N .
inactive

Please share the test call associated with COS(=O)(=O)OC .
inactive

====

Read-out: Cyclin D1 (CCND1), CCND1 (gene 595)
Test Method Notes: LTEA_HepaRG_CCND1: Life Technologies and Expression Analysis (LTEA) Assay for Cyclin D1 (CCND1) using HepaRG (AID 2283451)
Measurement Context: mRNA level, 48 h; actives raise or lower the signal
Protocol: LTEA_HepaRG is a cell based, multiplexed-readout assay that uses HepaRG, a human liver cell line, with measurements taken at 48 hours after chemical dosing on a 96-well plate.LTEA_HepaRG_CCND1 is one of 102 assay component(s) measured in the LTEA HepaRG cell culture assay. It is a marker of Cell proliferation, survival, death.Data from the assay component LTEA_HepaRG_CCND1 was analyzed into 1 endpoint. […]
Active and inactive are the calls of the source. Rule for the calls: active = hit-call score of the fitted dose curve at least 0.9, where 1 is the maximum; inactive = score below 0.9.
Pick from active, inactive when you respond.

Please share the test call associated with CCC(C)(CC)c1cc(NC(=O)c2c(OC)cccc2OC)on1 .
inactive

Please share the test call associated with ClC1=C(Cl)[C@]2(Cl)[C@@H]3[C@H]4C[C@H]([C@@H]5O[C@H]45)[C@@H]3[C@@]1(Cl)C2(Cl)Cl .
inactive

Please share the test call associated with Cc1cccc(C)c1N .
inactive

Please share the test call associated with CCCCCCOC(=O)c1ccccc1C(=O)OCCCCCC .
inactive

Please share the test call associated with Clc1ccc(C(Cl)(Cl)Cl)cc1 .
inactive

Please share the test call associated with O=S(=O)(O)C(F)(F)C(F)(F)C(F)(F)C(F)(F)C(F)(F)C(F)(F)F .
inactive

====

Read-out: DNA damage-inducible transcript 3 (DDIT3), DDIT3 (gene 1649)
Test Method Notes: LTEA_HepaRG_DDIT3: Life Technologies and Expression Analysis (LTEA) Assay for DNA damage-inducible transcript 3 (DDIT3) using HepaRG (AID 2283488)
Measurement Context: mRNA level, 48 h; actives raise or lower the signal
Active and inactive are the calls of the source. Rule for the calls: active = hit-call score of the fitted dose curve at least 0.9, where 1 is the maximum; inactive = score below 0.9.
Pick from active, inactive when you respond.

Examples with answers:
{"columns": ["Compound", "Assigned Label"],
 "data": [
  ["CCC(C)(CC)c1cc(NC(=O)c2c(OC)cccc2OC)on1", "active"],
  ["CCOP(=S)(OCC)SCSC(C)(C)C", "inactive"],
  ["ClC1=C(Cl)[C@]2(Cl)[C@@H]3[C@H]4C[C@H]([C@@H]5O[C@H]45)[C@@H]3[C@@]1(Cl)C2(Cl)Cl", "active"],
  ["Cc1cc2c3c(c1)C(c1ccccc1)=N[C@@H](NC(=O)c1ccncc1)C(=O)N3CC2", "active"],
  ["CC#Cc1cc(C)nc(Nc2ccccc2)n1", "inactive"]
]}

Please share the test call associated with CCCN(CCC)N=O .
inactive

Please share the test call associated with C=CC(N)=O .
inactive
